# reported Ki; entries follow
Molecular target: HLA-DR1 (Homo sapiens, UniProt P01903+P01911, A100R/D57E/F55L/F60I/F76Y/I96L/L162R/M171V/P40L/Q125E/R42F/V115G/Y59C)
Construct: made in house; host or cells: Sf9 insect cells
Assay: Competition against 125I-labeled HA 307-319 for binding to "empty" HLA-DR1
Ends that are not written are not given here.

**Query** # return recorded Ki for input RVEYHFLSPYVSPKESP [Transf. Recept. 680-696]
**Result** < 10 nM

**Query** Please look at this sequence and report its Ki: IPADLRIISANGCKVDNS [Na+/K+ ATPase 199-216]
**Result** 68 nM

**Query** Quickly give me recorded Ki for KMRMATPLLMQALPM [Ii 106-120]
**Result** < 10 nM

**Query** In one line, give reported Ki of the entry SDLSFSKDWSFYL [β2 m 52-64, reference compound] .
**Result** > 10000 nM

**Query** Read off the recorded Ki for LPKPPKPVSKMRMATPLLMQALPM [Ii 98-121]
**Result** 33 nM

**Query** Query Ki for VGSDWRFLRGYHQYA [HLA-A2 103-117]
**Result** 49 nM
